# maps each entry to its MIC
- System: P. aeruginosa ATCC 27853
- Protocol Notes: MIC broth microdilution, APAE001
- Format: cell-based
- Experimental Setup: Pseudomonas aeruginosa; APAE001 is ATCC27853; Mueller Hinton Broth, 35 C, 20 hours

query_smiles=NC[C@@H](O)[C@H](O)C(=O)N[C@@H]1C[C@H](N)[C@@H](O[C@H]2O[C@H](CNCCO)[C@@H](O)C[C@H]2N)[C@H](O[C@@H]2O[C@H](CO)[C@@H](O[C@H]3O[C@@H](CN)[C@@H](O)[C@H](O)[C@H]3N)[C@H]2O)[C@H]1O measured="≤ 1 µg/mL"

Input line: For P. aeruginosa ATCC 27853, provide MIC of `NC[C@@H]1O[C@H](O[C@H]2[C@@H](O)[C@H](O[C@@H]3[C@@H](O)[C@H](NC(=O)C4(O)CNC4)C[C@H](N)[C@H]3O[C@H]3O[C@H](CNCCO)[C@@H](O)C[C@H]3N)O[C@@H]2CO)[C@H](N)[C@@H](O)[C@@H]1O` please.
Output line: ≤ 1 µg/mL

Just for reference, patent US20120283208A1 is where these values come from.
